All figures here come from patent US10517889B2.

system: human SMAD7 mRNA; experiment: Antisense inhibition of human SMAD7 mRNA expression in Hep3B cells by 3-10-3 cEt gapmers, 10,000 nM, electroporation (Example 2); format: cell-based; conditions: Hep3B cells, electroporation with 10,000 nM antisense oligonucleotide, approximately 24 hours, RTS5062, percent inhibition of SMAD7 mRNA relative to untreated control cells
Strand notation (5' to 3'): a small letter for the sugar, then the base; units joined by * are phosphorothioate-linked, units joined directly phosphodiester-linked; [ ] holds rarer units or linkages, { } end groups; capitals alone tell only the bases. k = constrained ethyl (cEt); [5mC] = 5-methylcytosine; d = 2'-deoxy (DNA)
The following substances are shown together with reported % Inhibition values.
Response body: numeric value in %, unit text excluded.

799741 (antisense kA*kG*kT*dT*dA*dT*d[5mC]*dA*d[5mC]*d[5mC]*d[5mC]*dT*dG*kT*kT*kT) [compound 799741] ... 32
799646 (antisense k[5mC]*kA*kG*dA*dA*dA*d[5mC]*dT*d[5mC]*d[5mC]*dA*dG*dA*kT*kG*kG) [compound 799646] ... 18
799293 (antisense k[5mC]*k[5mC]*kT*dT*dG*dA*dT*dG*d[5mC]*dT*dG*dA*dT*kT*kA*kT) [compound 799293] ... 5

input: Data request, read-out % Inhibition, for 799567 (k[5mC]*kT*kT*dT*dG*dA*dG*dT*dA*dA*dA*d[5mC]*dA*kA*kT*kA; antisense) [compound 799567]
output: 15

input: Same thing, different substance: 799612 (kA*kA*kA*d[5mC]*dA*dG*d[5mC]*dA*d[5mC]*dA*d[5mC]*dA*dG*kG*kG*k[5mC]; antisense) [compound 799612]
output: 50

input: Same thing, different substance: 799571 (k[5mC]*kA*kG*dA*dA*dA*dA*dG*dA*dT*dG*d[5mC]*dA*kG*kT*kT; antisense) [compound 799571]
output: 46

input: Same thing, different substance: 799686 (antisense kG*kA*kG*dA*dT*dT*dT*dT*dA*dA*dA*dT*dG*k[5mC]*kT*kG) [compound 799686]
output: 62

input: Same thing, different substance: 799746 (antisense kA*kA*kT*dG*dG*dG*dA*dA*dA*dT*dA*dA*dG*kG*k[5mC]*kG) [compound 799746]
output: 59

input: Same thing, different substance: 799730 (antisense kT*kA*kA*dA*dT*dT*dG*dA*dG*dA*dA*d[5mC]*dT*kG*kT*kG) [compound 799730]
output: 60

input: Same thing, different substance: 799685 (antisense kG*kA*kT*dT*dT*dT*dA*dA*dA*dT*dG*d[5mC]*dT*kG*kT*k[5mC]) [compound 799685]
output: 25

input: Same thing, different substance: 799630 (k[5mC]*k[5mC]*k[5mC]*dT*dA*dT*d[5mC]*d[5mC]*d[5mC]*dA*dG*dA*dG*k[5mC]*k[5mC]*kT; antisense) [compound 799630]
output: 43

input: Same thing, different substance: 799298 (antisense k[5mC]*k[5mC]*kA*dA*dA*dA*dG*dG*d[5mC]*dT*dG*dA*d[5mC]*kT*k[5mC]*kG) [compound 799298]
output: 54

input: Same thing, different substance: 799711 (antisense kG*kG*kT*d[5mC]*dA*dA*dA*d[5mC]*dT*dT*dG*dT*dG*kG*kT*kA) [compound 799711]
output: 60
